tested on: KM12 colon; test: NCI-60 one-dose screen, 48 h (100 = growth as untreated, 0 = no growth, -100 = all killed); details: 10 µM unless noted
This is part of a sample that, as a whole, favours compounds with a hit. Of some 83,000 tested, about 20% had one in any assay.
Classify: class 1 when growth is strictly less than 50%; class 0 when growth is not.

Exercise: In the record for Fc1ccc(-c2cc3nc(C(Cl)Cl)nc(-c4ccc(Cl)cc4)n3n2)cc1 , is growth less than 50%?
Key: class 1

Exercise: Input COc1ccc2[nH]cc(-c3cc(N)n4nc(-c5c[nH]c6ccc(OC)cc56)cc4n3)c2c1
Key: class 1

Exercise: Input COc1ccc(-c2nc3ccc(-c4nnc(SCC(=O)Nc5ccc(C(C)=O)cc5)o4)cc3[nH]2)cc1
Key: class 0

Exercise: Input COc1cc2nc(-c3ccc(C)cc3)cc(OCCCNCC3CCCO3)c2cc1OC (centres undefined)
Key: class 0

Exercise: Input OC1CCN(CCCOc2c3ccccc3nc3c2oc2ccccc23)CC1
Key: class 1

Exercise: Input COc1ccc(-c2nc3ccc(-c4nnc(SCC(=O)Nc5ccc(C(=O)/C=C/c6ccc(Cl)cc6)cc5)o4)cc3[nH]2)cc1OC
Key: class 0

Exercise: Input Clc1ccc2c(NCCCN3CCOCC3)c3oc4ccc(Cl)cc4c3nc2c1
Key: class 1

Exercise: Input NC(=O)c1c(NC(=O)c2ccc(C3CCCCC3)cc2)sc2c1CCC(=O)C2
Key: class 1

Exercise: Input CN(C)CCCNc1c2ccccc2nc2c1oc1ccc(Cl)cc12
Key: class 1

---

tested on: SK-OV-3 ovarian; assay: NCI-60 one-dose screen, 48 h; conditions: 10 µM unless noted
The panel holds about 83,000 compounds, 20% with a hit somewhere; the sample as a whole holds those more often. Calls of active or inactive are those of the source. How the source made its calls: active means growth percent below 10; inactive means the rest.
Your response should consist of one outcome taken from active, inactive

# count of solved cases: 5
# COMPOUND, SYSTEM, LABEL
records = [
    ("N#Cc1ccc(C(=O)CSc2nc(Nc3ccc(S(N)(=O)=O)cc3)c3ccccc3n2)cc1", "SK-OV-3 ovarian", "inactive"),
    ("CN(C)CCCOc1c2ccc(Cl)cc2nc2c1oc1ccccc12", "SK-OV-3 ovarian", "active"),
    ("CCN1C(=S)N(c2ccccc2)C2NC(=O)N(/N=C/C=C/c3ccccc3OC)C21 (stereo unspecified)", "SK-OV-3 ovarian", "inactive"),
    ("Cc1sc2nc(NCc3ccccc3Cl)[nH]c(=O)c2c1C", "SK-OV-3 ovarian", "inactive"),
    ("N=C1CC(=O)NN1C(=O)CSc1nc2sc3c(c2c(=O)n1-c1ccc(Cl)cc1)CCCC3", "SK-OV-3 ovarian", "inactive"),
]

Exercise: What did the test return for CC(C)(C)Nc1nc2c(OCCc3ccccc3)cccn2c1-c1ccccc1Cl ?
Key: active

Exercise: Input COc1ccc(-c2nc3ccc(-c4nnc(SCC(=O)Nc5ccc(C(=O)/C=C/c6ccc(Cl)cc6)cc5)o4)cc3[nH]2)cc1OC
Key: inactive

Exercise: Input Fc1ccc(-c2nc(C(Cl)Cl)nc3cc(-c4ccccc4)nn23)cc1
Key: active

---

tested on: OVCAR-8 ovarian; test: NCI-60 one-dose screen, 48 h; settings: 10 µM unless noted
This is part of a sample that, as a whole, favours compounds with a hit. Of some 83,000 tested, about 20% had one in any assay. Calls of active or inactive are those of the source. Rule for the calls: active = growth percent below 10; inactive = the rest.
Your response should consist of one outcome taken from 1 (yes) (active), 0 (no) (inactive)

# count of solved cases: 5
# MOLECULE, LABEL
measured = [
    ("Cc1nc(-c2cc3ccccc3oc2=O)ccc1C(=O)/C=C/c1ccccn1", "0 (no)"),
    ("C=C1CC[C@H]2[C@@](C)(CCC3OC(c4ccc(OCc5cn(C6CC(OC(C)=O)C(OC(C)=O)C(COC(C)=O)O6)nn5)cc4)OC[C@]32C)[C@@H]1/C=C/C1=CCOC1=O (some centres undefined)", "0 (no)"),
    ("COc1cccc(-c2nn(-c3ccccc3)cc2-c2ccnc(N3CCN(C(=O)Nc4ccc(F)cc4)CC3)c2)c1", "0 (no)"),
    ("Nc1cc(-c2c[nH]c3ccccc23)nc2cc(-c3c[nH]c4ccccc34)nn12", "0 (no)"),
    ("Cc1nc(-c2cc3ccccc3oc2=O)ccc1C(=O)/C=C/c1ccc(Cl)c(Cl)c1", "0 (no)"),
]

Exercise: What did the test return for C#Cc1nc(C2=C(C)C(=O)/C(=N/OC(C)=O)C2)cs1 ?
Key: 0 (no)

Exercise: Input Clc1ccc2c(OCCCN3CCOCC3)c3oc4ccccc4c3nc2c1
Key: 0 (no)

Exercise: Input O=C(Nc1nc2ccc(O)cc2s1)c1cccc(C(F)(F)F)c1
Key: 0 (no)

Exercise: Input C#C[C@]1(O)CC[C@H]2[C@@H]3CC=C4c5sc(-c6ccc(F)cn6)nc5CC[C@]4(C)[C@H]3CC[C@@]21C
Key: 0 (no)

Exercise: Input O=C1Nc2ccc(Cl)cc2/C1=C/c1ccc(OCC(=O)c2ccc(Br)cc2)cc1
Key: 0 (no)

Exercise: Input CC(C)(C)Nc1nc2c(OCCc3ccccc3)cccn2c1-c1ccc(Cl)cc1
Key: 0 (no)

Exercise: Input CCOC(=O)c1sc(NCC(=O)Nc2cccc([N+](=O)[O-])c2)c(C(=O)OCC)c1C
Key: 1 (yes)

Exercise: Input N/C(=N\c1nc2c(Br)cccc2s1)C(Br)Br
Key: 1 (yes)

Exercise: Input C/C(=C(/c1ccc(Cl)cc1)c1ccc(OCCN)cc1)c1ccc(C)cc1
Key: 0 (no)

Exercise: Input Cc1c(NC(=O)CSc2nc3sc4c(c3c(=O)n2-c2ccc(Cl)cc2)CCCC4)c(=O)n(-c2ccccc2)n1C
Key: 0 (no)
